Structures can show the parent of a compound that is named as a salt.
Recorded melting point values for a group of compounds are listed next.
Measured property: melting point

- Cc1ccc(C2(c3ccc(C)cc3)NC(=O)N(CCCCN3CCC4(CC3)C(=O)Cc3ccccc34)C2=O)cc1: 76 to 88 °C
- Cc1ccc(C2(c3ccc(C)cc3)NC(=O)N(CCCN3CCC4(CC3)C(=O)Nc3ccccc34)C2=O)cc1 (as salt: hydrochloride): > 210 °C
- CCOC(=O)CN1C(=O)N(CCCN2CCC(C#N)(c3ccccc3C)CC2)C(=O)C1(c1ccc(C)cc1)c1ccc(C)cc1: 63 to 65 °C
- Cc1ccc(C2(c3ccc(C)cc3)NC(=O)N(CCCN3CCC(n4c(=O)[nH]c5cc(Cl)ccc54)CC3)C2=O)cc1: 144 to 155 °C
- Cc1ccc(C2(c3ccc(C)cc3)NC(=O)N(CCCN3CCN(c4ccccc4C#N)CC3)C2=O)cc1 (as salt: hydrochloride): 236 °C
- COC(=O)C1CN(CCCN2C(=O)NC(c3ccc(C)cc3)(c3ccc(C)cc3)C2=O)CCC1Nc1ccccc1Cl.Cl (racemic): 160 to 163 °C

###

Structures can show the parent of a compound that is named as a salt.
Measured property: melting point

• Cc1ccc(C2(c3ccc(C)cc3)NC(=O)N(CCCN3CCC4(CC3)Cc3ccccc3C4=O)C2=O)cc1 [Compound 20] = 201 to 205 °C
• Cc1ccc(C2(c3ccc(C)cc3)NC(=O)N(CCCN3CCN(c4ccccc4C(N)=O)CC3)C2=O)cc1 (as salt: hydrochloride) [Compound 25, dihydrochloride] = 160 to 163 °C
• N#CC1(c2ccccc2)CCN(CCCN2C(=O)NC(c3ccccc3)(c3ccccc3)C2=O)CC1 [Compound 15] = 161 to 163 °C

###

Recorded melting point values for a group of compounds are listed next.
Counter-ions that a name gives are not always drawn.
Measured property: melting point

* Cc1ccc(C2(c3ccc(C)cc3)NC(=O)N(CCCN3CCC4(CCc5ccccc54)CC3)C2=O)cc1 | 170 to 172 °C
* Cc1ccc(C2(c3ccc(C)cc3)NC(=O)N(CCCN3CCC(C#N)(c4ccccc4C)CC3)C2=O)cc1 | 164 to 165 °C
* Cc1ccc(C2(c3ccc(C)cc3)NC(=O)N(CCCN3CCC4(CC3)C(=O)N(C)c3ccccc34)C2=O)cc1 | 127 to 135 °C
* CC1(c2ccccc2)NC(=O)N(CCCN2CCC(C#N)(c3ccccc3)CC2)C1=O (racemic) (as salt: hydrochloride) | 222 to 223 °C
* COCN1C(=O)N(CCCN2CCC(C#N)(c3ccccc3C)CC2)C(=O)C1(c1ccc(C)cc1)c1ccc(C)cc1 | 53 to 55 °C
